# SYSTEM_UNDER_TEST: T1, recombinant human Her2/ErbB2 Fc Tag (ACROBiosystems) (human, UniProt P04626 23-652)
# T1 construct: Bought product; Captured on protein A biosensors; also called HER2-Fc; not shown: Fc tag of the bought product
# EXPERIMENT_SUMMARY: BLI (Octet-HTX), HER2-Fc captured on protein A biosensors, sdAb in solution, 37 C
VALUE_TYPE: Kd (nM)
Unit nM implied. Number only.

Look over these answered cases.
BINDER	VALUE_TYPE	OBSERVED_VALUE
anti-HER2 humanized synthetic single domain antibody sdAb no 2 (VHH, Purified sdAb in BLI; also called sdAb 2; hsdAb 2) VHH: EVQLQASGGGFVQPGGSLRLSCAASGDSYNESSMGWFRQAPGKEREFVSAISARGNHPLYYADSVKGRFTISRDNSKNTVYLQMNSLRAEDTATYYCASMPMPKWKKYWGQGTQVTVSS	Kd	4.1
anti-HER2 humanized synthetic single domain antibody sdAb no 4 (VHH, Purified sdAb in BLI; Any tag is not described for this assay; also called sdAb 4) VHH: EVQLQASGGGFVQPGGSLRLSCAASGYTSRESGMGWFRQAPGKEREFVSAISRDQDGISYYADSVKGRFTISRDNSKNTVYLQMNSLRAEDTATYYCAMIPLTRNAKYWGQGTQVTVSS	Kd	5.2

For the next question, use this binder.
Quick note, Kd for anti-HER2 humanized synthetic single domain antibody sdAb no 5 (VHH, Purified sdAb in BLI; also called sdAb 5; hsdAb 5) VHH: EVQLQASGGGFVQPGGSLRLSCAASGYTFSEETMGWFRQAPGKEREFVSAISWNHTFFEYYADSVKGRFTISRDNSKNTVYLQMNSLRAEDTATYYCAVTPLPPNKAYWGQGTQVTVSS landed at 33.3
